procedure.text: in vivo
test.settings: rat, plasma, iv, 10 mg/kg
test.readout: clearance (mL/min/kg)
Output spec: scalar in mL/min/kg, unitless text.

[in] # clearance lookup, item Nc1nc(=O)n([C@@H]2CS[C@H](CO)O2)cc1F (racemic) [(±)-FTC]
[out] 16.5

----------
procedure.text: in vitro
test.settings: african green monkey, vero cells
test.readout: CC50

[in] # CC50 lookup, item Nc1nc(=O)n([C@@H]2CS[C@H](CO)O2)cc1F (racemic) [(±)-FTC]
[out] > 100 µM

----------
procedure.text: in vivo
test.settings: rat, plasma, iv, 50 mg/kg
test.readout: clearance
Remember to follow the number with its unit.

[in] # clearance lookup, item Nc1nc(=O)n([C@@H]2CS[C@H](CO)O2)cc1F (racemic) [(±)-FTC]
[out] 14.6 mL/min/kg

----------
A collection of compounds and their measured viability at 300 µM
procedure.text: Toxicity analysis in 2.2.15 cells, neutral red dye uptake
Type: cell-based, human
test.settings: human, 2.2.15 cells, 300 µM; read-out: DYE UPTAKE (% OF CONTROL) WELL C
Output spec: scalar in %, unitless text.

>>> numeric_readout("Nc1nc(=O)n([C@@H]2CS[C@H](CO)O2)cc1F (single isomer, unassigned) [(-)-FTC]")
51.5

// next item, viability at 300 µM requested
[in] # viability at 300 µM lookup, item Nc1nc(=O)n([C@H]2CS[C@@H](CO)O2)cc1F [(+)-FTC]
[out] 58.5

----------
procedure.text: Toxicity analysis in 2.2.15 cells, neutral red dye uptake
Format: cell-based, human
test.settings: human, 2.2.15 cells, 10 µM; read-out: DYE UPTAKE (% OF CONTROL) WELL A
test.readout: viability at 10 µM (%)
Output spec: scalar in %, unitless text.

>>> numeric_readout("Nc1nc(=O)n([C@H]2CS[C@@H](CO)O2)cc1F [(+)-FTC]")
90.9

// next item, viability at 10 µM requested
[in] # viability at 10 µM lookup, item Nc1nc(=O)n([C@@H]2CS[C@H](CO)O2)cc1F (single isomer, unassigned) [(-)-FTC]
[out] 94.3

----------
procedure.text: Toxicity analysis in 2.2.15 cells, neutral red dye uptake
Assay type: cell-based, human
test.settings: human, 2.2.15 cells, 300 µM; read-out: DYE UPTAKE (% OF CONTROL) WELLB
Method: Toxicity analyses were performed to assess whether any observed antiviral effects were due to a general effect on cell viability. The method used herein was the measurement of the uptake of neutral red dye, a standard and widely used assay for cell viability in a variety of virus-host systems, including HSV and HIV. Toxicity analyses were performed in 96-well flat bottomed tissue culture plates. […] The absorbance of internalized dye at 510 nm (Asin) was used for the quantitative analysis. […]
A collection of compounds and their measured viability at 300 µM
Remember to follow the number with its unit.

>>> result("Nc1nc(=O)n([C@@H]2CS[C@H](CO)O2)cc1F (single isomer, unassigned) [(-)-FTC]")
"51.1%"

[in] # viability at 300 µM lookup, item Nc1nc(=O)n([C@H]2CS[C@@H](CO)O2)cc1F [(+)-FTC]
[out] 56.7%

----------
System: FIV
procedure.text: microbe, parasite or virus in culture
test.settings: Feline immunodeficiency virus, CRFK
Procedure: Cell lines were obtained from either human donors, AIDS Research and Reference Reagent Program, NIH, Rockville, Maryland, ATCC, or the Red Cross. The CEM thymidine kinase deficient cells were prepared by sequential passage of CEM cells in the presence of 5-bromo-2'-deoxyuridine.
test.readout: EC50

[in] # EC50 lookup, item Nc1nc(=O)n([C@@H]2CS[C@H](CO)O2)cc1F (racemic) [(±)-FTC]
[out] ≤ 1000 nM

----------
System: SIV
procedure.text: microbe, parasite or virus in culture
test.settings: Simian immunodeficiency virus
test.readout: EC50 (µM)
Output spec: scalar in µM, unitless text.

[in] Recorded EC50 for Nc1nc(=O)n([C@@H]2CS[C@H](CO)O2)cc1F (racemic) [(±)-FTC] with SIV, please?
[out] 4.6

----------
System: HIV-1
procedure.text: microbe, parasite or virus in culture
test.settings: Human immunodeficiency virus 1, MT2 (HTLV1118)
test.readout: EC50 (nM)
Output spec: scalar in nM, unitless text.

[in] # EC50 lookup, item Nc1nc(=O)n([C@@H]2CS[C@H](CO)O2)cc1F (racemic) [(±)-FTC]
[out] 890

----------
procedure.text: Toxicity analysis in 2.2.15 cells, neutral red dye uptake
Assay type: cell-based, human
test.settings: human, 2.2.15 cells, 300 µM; read-out: DYE UPTAKE (% OF CONTROL) WELL A
test.readout: viability at 300 µM (%)
Output spec: scalar in %, unitless text.

>>> numeric_readout("Nc1nc(=O)n([C@H]2CS[C@@H](CO)O2)cc1F [(+)-FTC]")
43.4

[in] # viability at 300 µM lookup, item Nc1nc(=O)n([C@@H]2CS[C@H](CO)O2)cc1F (single isomer, unassigned) [(-)-FTC]
[out] 53

----------
A collection of compounds and their measured viability at 30 µM
procedure.text: Toxicity analysis in 2.2.15 cells, neutral red dye uptake
Assay type: cell-based, human
test.settings: human, 2.2.15 cells, 30 µM; read-out: DYE UPTAKE (% OF CONTROL) WELL A
Output spec: scalar in %, unitless text.

>>> numeric_readout("Nc1nc(=O)n([C@@H]2CS[C@H](CO)O2)cc1F (single isomer, unassigned) [(-)-FTC]")
98.7

// next item, viability at 30 µM requested
[in] # viability at 30 µM lookup, item Nc1nc(=O)n([C@H]2CS[C@@H](CO)O2)cc1F [(+)-FTC]
[out] 81.1

----------
procedure.text: in vivo
test.settings: rat, plasma, iv, 50 mg/kg
test.readout: half-life (min)
Output spec: scalar in min, unitless text.

[in] # half-life lookup, item Nc1nc(=O)n([C@@H]2CS[C@H](CO)O2)cc1F (racemic) [(±)-FTC]
[out] 48.9

----------
A collection of compounds and their measured viability at 30 µM
procedure.text: Toxicity analysis in 2.2.15 cells, neutral red dye uptake
Type: cell-based, human
test.settings: human, 2.2.15 cells, 30 µM; read-out: DYE UPTAKE (% OF CONTROL) WELLB
Remember to follow the number with its unit.

[in] # viability at 30 µM lookup, item Nc1nc(=O)n([C@H]2CS[C@@H](CO)O2)cc1F [(+)-FTC]
[out] 88.3%

[in] Follow-up item: Nc1nc(=O)n([C@@H]2CS[C@H](CO)O2)cc1F (single isomer, unassigned) [(-)-FTC]
[out] 94.3%

----------
procedure.text: Toxicity analysis in 2.2.15 cells, neutral red dye uptake
Assay type: cell-based, human
test.settings: human, 2.2.15 cells, 30 µM; read-out: DYE UPTAKE (% OF CONTROL) WELL C
test.readout: viability at 30 µM (%)
Output spec: scalar in %, unitless text.

[in] # viability at 30 µM lookup, item Nc1nc(=O)n([C@@H]2CS[C@H](CO)O2)cc1F (single isomer, unassigned) [(-)-FTC]
[out] 96.4

[in] Follow-up item: Nc1nc(=O)n([C@H]2CS[C@@H](CO)O2)cc1F [(+)-FTC]
[out] 88.1

----------
procedure.text: Toxicity analysis in 2.2.15 cells, neutral red dye uptake
Format: cell-based, human
test.settings: human, 2.2.15 cells, 10 µM; read-out: DYE UPTAKE (% OF CONTROL) WELL C
A collection of molecules and their measured viability at 10 µM
Output spec: scalar in %, unitless text.

>>> numeric_readout("Nc1nc(=O)n([C@@H]2CS[C@H](CO)O2)cc1F (single isomer, unassigned) [(-)-FTC]")
92.2

// next item, viability at 10 µM requested
[in] # viability at 10 µM lookup, item Nc1nc(=O)n([C@H]2CS[C@@H](CO)O2)cc1F [(+)-FTC]
[out] 90.5

----------
procedure.text: in vivo
test.settings: rhesus monkey, iv, 33.3 mg/kg, CLT, I.V. 33.3 mg/kg, Mean of three monkeys
test.readout: clearance
Remember to follow the number with its unit.

[in] # clearance lookup, item Nc1nc(=O)n([C@@H]2CS[C@H](CO)O2)cc1F (racemic) [(±)-FTC]
[out] 24.8 mL/min/kg

// data source = patent EP1439177B1
